target: calcium channel (Oryctolagus cuniculus, UniProt P15381); assay: Assay for Inhibition of Nitrendipine Binding (3H-nitrendipine, heart membranes); conditions: displacement of 3H-nitrendipine (0.05-0.50 nM) from rabbit heart membranes, 90 minutes at 4° C.
Sequence (P15381 whole entry, other chains not shown): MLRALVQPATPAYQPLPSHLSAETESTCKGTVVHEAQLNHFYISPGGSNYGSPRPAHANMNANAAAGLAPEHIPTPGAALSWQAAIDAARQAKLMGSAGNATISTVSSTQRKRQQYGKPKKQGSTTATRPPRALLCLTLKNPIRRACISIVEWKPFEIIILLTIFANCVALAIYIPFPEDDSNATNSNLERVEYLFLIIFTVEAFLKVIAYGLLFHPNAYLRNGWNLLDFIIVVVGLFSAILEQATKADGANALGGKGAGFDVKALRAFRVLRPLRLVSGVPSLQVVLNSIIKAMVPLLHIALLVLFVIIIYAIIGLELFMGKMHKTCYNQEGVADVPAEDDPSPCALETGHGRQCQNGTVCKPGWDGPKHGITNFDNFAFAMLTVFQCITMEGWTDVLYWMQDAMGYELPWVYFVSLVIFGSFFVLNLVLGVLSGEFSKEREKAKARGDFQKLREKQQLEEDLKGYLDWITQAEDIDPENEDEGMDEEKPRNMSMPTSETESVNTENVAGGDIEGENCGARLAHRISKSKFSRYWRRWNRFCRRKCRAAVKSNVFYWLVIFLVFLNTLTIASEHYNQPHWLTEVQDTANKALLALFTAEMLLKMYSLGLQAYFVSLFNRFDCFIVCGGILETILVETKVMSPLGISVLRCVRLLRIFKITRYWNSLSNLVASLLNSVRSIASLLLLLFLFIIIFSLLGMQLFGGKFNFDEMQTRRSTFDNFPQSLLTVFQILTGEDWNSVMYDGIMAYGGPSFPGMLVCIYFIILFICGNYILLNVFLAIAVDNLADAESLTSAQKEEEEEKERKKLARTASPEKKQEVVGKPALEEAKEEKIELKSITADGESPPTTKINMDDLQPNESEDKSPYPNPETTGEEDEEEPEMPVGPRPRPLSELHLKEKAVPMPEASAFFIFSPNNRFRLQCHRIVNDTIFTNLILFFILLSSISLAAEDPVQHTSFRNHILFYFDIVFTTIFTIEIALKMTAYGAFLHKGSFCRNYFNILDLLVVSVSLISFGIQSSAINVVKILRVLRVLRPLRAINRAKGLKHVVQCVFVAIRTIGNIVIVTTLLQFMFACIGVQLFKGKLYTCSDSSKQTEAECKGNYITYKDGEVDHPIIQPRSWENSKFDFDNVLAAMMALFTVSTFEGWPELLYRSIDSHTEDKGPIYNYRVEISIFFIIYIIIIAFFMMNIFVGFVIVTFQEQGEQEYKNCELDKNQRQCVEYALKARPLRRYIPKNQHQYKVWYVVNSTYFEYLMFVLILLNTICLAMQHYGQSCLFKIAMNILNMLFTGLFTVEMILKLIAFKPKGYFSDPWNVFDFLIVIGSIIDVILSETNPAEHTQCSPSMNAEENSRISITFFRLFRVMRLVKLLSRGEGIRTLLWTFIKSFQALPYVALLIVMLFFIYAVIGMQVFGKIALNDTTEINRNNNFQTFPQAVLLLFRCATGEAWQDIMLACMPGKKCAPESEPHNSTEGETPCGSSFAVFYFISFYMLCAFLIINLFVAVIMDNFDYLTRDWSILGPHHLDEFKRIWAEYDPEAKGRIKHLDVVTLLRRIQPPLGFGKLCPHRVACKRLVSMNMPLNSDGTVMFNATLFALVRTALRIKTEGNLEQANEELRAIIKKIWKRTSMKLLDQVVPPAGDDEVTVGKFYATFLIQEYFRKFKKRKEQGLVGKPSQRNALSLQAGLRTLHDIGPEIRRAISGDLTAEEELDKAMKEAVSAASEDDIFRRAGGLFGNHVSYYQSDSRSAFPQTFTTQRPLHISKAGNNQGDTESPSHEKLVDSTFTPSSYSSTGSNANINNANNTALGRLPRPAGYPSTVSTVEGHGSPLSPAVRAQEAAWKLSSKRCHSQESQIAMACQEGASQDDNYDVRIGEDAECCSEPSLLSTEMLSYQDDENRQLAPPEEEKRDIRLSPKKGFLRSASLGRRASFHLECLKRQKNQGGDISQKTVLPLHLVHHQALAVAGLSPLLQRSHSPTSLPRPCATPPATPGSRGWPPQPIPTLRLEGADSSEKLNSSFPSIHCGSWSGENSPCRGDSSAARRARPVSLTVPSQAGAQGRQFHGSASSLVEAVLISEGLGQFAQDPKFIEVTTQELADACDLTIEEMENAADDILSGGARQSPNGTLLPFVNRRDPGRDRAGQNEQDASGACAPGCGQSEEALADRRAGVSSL
Sequence (P13806 27-960 partner limits assumed, other chains not shown): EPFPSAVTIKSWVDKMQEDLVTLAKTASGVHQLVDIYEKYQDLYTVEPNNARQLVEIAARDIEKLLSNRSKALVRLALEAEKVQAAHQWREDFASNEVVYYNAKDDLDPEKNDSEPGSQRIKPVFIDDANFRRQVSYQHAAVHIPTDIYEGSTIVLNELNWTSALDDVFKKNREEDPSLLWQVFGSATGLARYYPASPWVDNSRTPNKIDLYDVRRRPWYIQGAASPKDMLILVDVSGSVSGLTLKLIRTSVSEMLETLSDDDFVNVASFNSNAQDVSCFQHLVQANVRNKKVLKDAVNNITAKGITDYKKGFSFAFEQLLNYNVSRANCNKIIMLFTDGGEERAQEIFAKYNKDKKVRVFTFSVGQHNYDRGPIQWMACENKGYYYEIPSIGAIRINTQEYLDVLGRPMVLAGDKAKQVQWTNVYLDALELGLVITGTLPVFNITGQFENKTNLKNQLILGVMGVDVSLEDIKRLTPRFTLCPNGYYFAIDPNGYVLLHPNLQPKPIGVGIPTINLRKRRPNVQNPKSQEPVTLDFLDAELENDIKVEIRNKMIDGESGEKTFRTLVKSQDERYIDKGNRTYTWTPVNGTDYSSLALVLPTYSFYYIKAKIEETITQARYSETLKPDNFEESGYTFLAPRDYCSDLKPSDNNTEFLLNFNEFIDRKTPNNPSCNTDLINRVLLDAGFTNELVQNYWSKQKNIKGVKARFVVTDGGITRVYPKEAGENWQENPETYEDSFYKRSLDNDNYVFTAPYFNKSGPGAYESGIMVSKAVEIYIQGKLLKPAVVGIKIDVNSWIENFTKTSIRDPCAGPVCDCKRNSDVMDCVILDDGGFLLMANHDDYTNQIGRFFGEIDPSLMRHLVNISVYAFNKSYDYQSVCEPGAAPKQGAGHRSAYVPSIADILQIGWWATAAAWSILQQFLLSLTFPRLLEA
Sequence (P13806 961-1106 partner limits assumed, other chains not shown): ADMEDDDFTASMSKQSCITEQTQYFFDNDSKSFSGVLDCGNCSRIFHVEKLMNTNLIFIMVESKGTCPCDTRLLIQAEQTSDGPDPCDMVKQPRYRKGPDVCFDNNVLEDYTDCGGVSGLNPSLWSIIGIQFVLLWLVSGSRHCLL
pIC50: −log10 of the molar value.
attribute.measured: pIC50

Reference set, count: 3
>>> reported_value("COC(=O)C1=C(C)NC2=C(C1c1cccc([N+](=O)[O-])c1)S(=O)(=O)c1ccccc1OC2 (stereo not shown)")
7.48
>>> reported_value("CC1=C(C(=O)OCCN(C)Cc2ccccc2)C(c2ccccc2Cl)C2=C(COc3ccccc3S2(=O)=O)N1 (stereo not shown)")
7.23
>>> reported_value("COC(=O)C1=C(C)NC2=C(C1c1ccccc1Cl)S(=O)(=O)c1ccccc1OC2 (stereo not shown)")
7.21

(A) CC1=C(C(=O)OCCN(C)Cc2ccccc2)C(c2cccc(Cl)c2Cl)C2=C(COc3ccccc3S2(=O)=O)N1 (stereo not shown)
(B) CC1=C(C(=O)OCCN(C)Cc2ccccc2)C(c2cccc([N+](=O)[O-])c2)C2=C(COc3ccccc3S2(=O)=O)N1 (stereo not shown)
(C) CC1=C(C(=O)OCCN(C)Cc2ccccc2)C(c2cccc(Cl)c2)C2=C(COc3ccccc3S2(=O)=O)N1 (stereo not shown)
Query :: Could you please order the items by pIC50, going from the lowest number to the highest? A ranking is expressed here by listing the labels in the requested order.
Result :: C, B, A
(C: 6.96, B: 7.35, A: 7.68)
